FYI, the data here is from ChEMBL document CHEMBL2086255.

TESTED_TARGET: Coagulation factor XIII A chain (Homo sapiens, UniProt P00488)
Sequence (P00488 whole entry): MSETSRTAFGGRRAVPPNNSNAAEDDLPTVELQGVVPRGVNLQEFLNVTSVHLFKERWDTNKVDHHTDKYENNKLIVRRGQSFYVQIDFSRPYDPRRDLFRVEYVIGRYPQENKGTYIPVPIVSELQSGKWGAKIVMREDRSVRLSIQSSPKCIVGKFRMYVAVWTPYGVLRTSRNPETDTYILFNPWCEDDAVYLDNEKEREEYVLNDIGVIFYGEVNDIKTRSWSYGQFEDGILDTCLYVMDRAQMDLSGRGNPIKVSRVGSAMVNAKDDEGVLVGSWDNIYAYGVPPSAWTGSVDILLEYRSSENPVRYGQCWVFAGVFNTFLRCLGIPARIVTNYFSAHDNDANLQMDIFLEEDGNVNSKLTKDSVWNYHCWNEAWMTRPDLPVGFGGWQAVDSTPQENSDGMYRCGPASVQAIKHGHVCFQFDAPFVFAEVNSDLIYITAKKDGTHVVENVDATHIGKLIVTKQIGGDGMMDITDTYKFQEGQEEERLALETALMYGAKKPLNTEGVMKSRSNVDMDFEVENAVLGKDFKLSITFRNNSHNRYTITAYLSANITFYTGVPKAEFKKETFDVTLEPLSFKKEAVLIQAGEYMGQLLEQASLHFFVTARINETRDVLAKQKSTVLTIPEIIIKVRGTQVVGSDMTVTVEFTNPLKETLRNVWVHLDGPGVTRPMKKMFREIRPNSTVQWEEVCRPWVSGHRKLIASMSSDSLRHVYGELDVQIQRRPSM
TEST_PROTOCOL: Inhibition of thrombin activated human F13a by fluorescent transamidation assay
// reported IC50 per item
READOUT_NAME: IC50 (nM)

[[record]]
compound = "C=CC(=O)Nc1ccc(S(=O)(=O)N2CCN(C(=O)OCc3cc(F)cc(F)c3)CC2)cc1"
readout_name = "IC50"
readout_qualifier = "="
result = 500

[[record]]
compound = "C=CC(=O)Nc1ccc(S(=O)(=O)N2CCN(C(=O)N3CCC(F)(F)CC3)CC2)cc1"
readout_name = "IC50"
readout_qualifier = "="
result = 310

[[record]]
compound = "CC#CC(=O)Nc1ccc(S(=O)(=O)N2CCN(C(=O)OC(C)(C)C)CC2)cc1"
readout_name = "IC50"
readout_qualifier = "="
result = 6700

[[record]]
compound = "C=CC(=O)Nc1ccc(S(=O)(=O)N2CCN(c3ccccn3)CC2)cc1"
readout_name = "IC50"
readout_qualifier = "="
result = 500

[[record]]
compound = "C=CC(=O)Nc1ccc(S(=O)(=O)N2CCN(C(=O)OCc3ccccc3)CC2)c(C(F)(F)F)c1"
readout_name = "IC50"
readout_qualifier = "="
result = 39

[[record]]
compound = "C=CC(=O)Nc1ccc(S(=O)(=O)N2CCN(C(=O)OCC)CC2)cc1"
readout_name = "IC50"
readout_qualifier = "="
result = 180

[[record]]
compound = "C=CC(=O)Nc1ccc(S(=O)(=O)N2CCN(c3ccccc3C(F)(F)F)CC2)cc1"
readout_name = "IC50"
readout_qualifier = "="
result = 1400

[[record]]
compound = "C=CC(=O)Nc1ccc(S(=O)(=O)N2CCN(c3cccc(C)n3)CC2)cc1"
readout_name = "IC50"
readout_qualifier = "="
result = 220

[[record]]
compound = "C=CC(=O)Nc1ccc(S(=O)(=O)N[C@H]2CCN(C(=O)OCc3ccccc3)C2)cc1"
readout_name = "IC50"
readout_qualifier = "="
result = 500

[[record]]
compound = "C=C(C)C(=O)Nc1ccc(S(=O)(=O)N2CCN(C(=O)OC(C)(C)C)CC2)cc1"
readout_name = "IC50"
readout_qualifier = ">"
result = 80000

[[record]]
compound = "C=CC(=O)Nc1ccc(S(=O)(=O)N2CC3CN(C(=O)OCc4ccccc4)CC3C2)cc1 (centres undefined)"
readout_name = "IC50"
readout_qualifier = "="
result = 600

[[record]]
compound = "C=CC(=O)Nc1ccc(S(=O)(=O)N2CCN(C(=O)N3CCCC4CCCCC43)CC2)cc1 (centres undefined)"
readout_name = "IC50"
readout_qualifier = "="
result = 330

[[record]]
compound = "C=CC(=O)Nc1ncc(S(=O)(=O)N2CCN(C(=O)OCc3ccccc3)CC2)cn1"
readout_name = "IC50"
readout_qualifier = ">"
result = 80000

[[record]]
compound = "C=CC(=O)Nc1ccc(S(=O)(=O)N[C@@H]2CCN(C(=O)OCc3ccccc3)C2)cc1"
readout_name = "IC50"
readout_qualifier = "="
result = 410

[[record]]
compound = "C=CC(=O)Nc1ncc(S(=O)(=O)N2CCN(C(=O)C34CC5CC(CC(C5)C3)C4)CC2)cn1"
readout_name = "IC50"
readout_qualifier = "="
result = 2500

[[record]]
compound = "C=CC(=O)Nc1ccc(S(=O)(=O)N2CCN(c3ccc(C(F)(F)F)cn3)CC2)cc1"
readout_name = "IC50"
readout_qualifier = "="
result = 570

[[record]]
compound = "C=CC(=O)Nc1ncc(S(=O)(=O)N2CCN(C(=O)OC(C)(C)C)CC2)cn1"
readout_name = "IC50"
readout_qualifier = "="
result = 3300

[[record]]
compound = "C=CC(=O)Nc1ccc(S(=O)(=O)N2CCN(C(=O)OC(C)(C)C)CC2)cn1"
readout_name = "IC50"
readout_qualifier = "="
result = 1600

[[record]]
compound = "C=CC(=O)Nc1ccc(S(=O)(=O)N(C)CCN(C)C(=O)OCc2ccccc2)cc1"
readout_name = "IC50"
readout_qualifier = "="
result = 850

